Origin of values: the supplement of paper PMC10065799

Target: Fes (UniProt P07332)
Sequence (P07332 whole entry, looked up): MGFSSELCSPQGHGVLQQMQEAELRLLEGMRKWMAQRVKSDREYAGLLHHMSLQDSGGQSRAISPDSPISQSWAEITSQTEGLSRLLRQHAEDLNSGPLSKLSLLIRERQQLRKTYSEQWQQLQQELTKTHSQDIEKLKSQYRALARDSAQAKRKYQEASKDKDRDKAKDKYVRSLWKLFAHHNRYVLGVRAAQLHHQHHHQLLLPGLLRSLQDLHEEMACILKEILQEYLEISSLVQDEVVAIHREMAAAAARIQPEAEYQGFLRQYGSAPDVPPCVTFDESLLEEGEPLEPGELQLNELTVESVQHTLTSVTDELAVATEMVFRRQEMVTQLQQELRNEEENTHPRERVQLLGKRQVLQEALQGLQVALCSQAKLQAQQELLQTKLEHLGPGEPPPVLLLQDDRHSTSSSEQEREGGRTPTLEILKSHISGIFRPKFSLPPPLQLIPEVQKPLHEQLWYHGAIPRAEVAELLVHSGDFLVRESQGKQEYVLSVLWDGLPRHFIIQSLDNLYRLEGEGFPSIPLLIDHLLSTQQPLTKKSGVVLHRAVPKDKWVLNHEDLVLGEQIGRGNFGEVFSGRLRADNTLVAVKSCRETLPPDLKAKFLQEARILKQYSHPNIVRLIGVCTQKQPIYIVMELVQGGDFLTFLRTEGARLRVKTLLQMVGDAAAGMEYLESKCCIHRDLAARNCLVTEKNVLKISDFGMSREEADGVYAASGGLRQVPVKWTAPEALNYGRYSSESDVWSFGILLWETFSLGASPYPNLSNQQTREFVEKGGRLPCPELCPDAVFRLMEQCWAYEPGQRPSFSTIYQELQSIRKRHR
Experiment: phosphorylation enrichment, bacterial display (enrichment ratio); higher = better substrate or ligand; peptides without Tyr show the background;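 further: 11-residue human phosphosite peptides and single-mutation variants displayed on the E. coli surface, counted by deep sequencing, each peptide's frequency after selection divided by its frequency in the unselected input library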;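 further: frequency after pTyr selection over input frequency; kinase dosed for 20-30% of maximal phosphorylation in three min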
Would you kindly list phosphorylation enrichment for each of these sequences?
Lab note: record the figure alone, no unit after it.

// returns reported phosphorylation enrichment for input NFDLDYDSVQP [MYC_Y16_YF]
0.974

Another sequence to look at: ADTETYLLEKS [MYH7_Y266_I263T]
1.1

Another sequence to look at: LSGFGYRLSDQ [PDCD6_Y124]
0.977

Another sequence to look at: AVLSLYASGCT [ACTA2_Y145_R149C]
1.39

Another sequence to look at: ETKKQYNSFTF [TMED3_Y85_D86N_YF]
0.711

Another sequence to look at: LYDPDYMKVIL [CYP4A22_Y104]
1.54

Another sequence to look at: GIMEEYQLPFF [BMPR1A_Y453_V450M_YF]
1.11

Another sequence to look at: IGCHAYGDQFR [IDH1_Y135_R132C_YF]
1.04

Another sequence to look at: YGAHNHHPLPV [OAT_Y55_Y55H]
0.696

Another sequence to look at: TARREYMHSPS [CPOX_Y429_W427R]
0.656

Another sequence to look at: RAYSWYQHQRA [NDST1_Y714]
1.16

Another sequence to look at: PSARTYCYKQE [KLHDC9_Y175]
1.29

Another sequence to look at: TLNVRHESVQA [CEACAM7_Y236_Y236H]
0.59

Another sequence to look at: NAPNSYGRRPI [CDKN2A_Y44]
0.952

Another sequence to look at: RRLEPYGENFN [APOA4_Y310_V307L]
0.732

Another sequence to look at: SVTCTYSSALN [TP53_Y126_P128S]
1

Another sequence to look at: PRAGVYPEKDQ [DNM2_Y626_L621P]
1.26

Another sequence to look at: CETMEYLESKQ [BTK_Y511_A508T]
1.56

Another sequence to look at: TSESSYYKSLN [NGEF_Y288_A286S]
0.817

Another sequence to look at: VDDEIYYFRKP [PBRM1_Y1289]
1.39

Another sequence to look at: GDEEDYEEIPG [EGFR_opt_E_2015]
1.38

Another sequence to look at: LQLLGHRPVYS [CHST6_Y358_Y358H]
0.701

Another sequence to look at: SSYSRYIMMPN [LEF1_Y114_G113R]
0.637

Another sequence to look at: HRGHLYLAIEY [TEK_Y899_Y897H]
1.56

Another sequence to look at: EKLQQYLAPGM [EPHB3_Y600_I601L]
0.863

Another sequence to look at: TQPSPYAVFRF [RPGRIP1_Y823_YF]
0.805

Another sequence to look at: LSIDRYHAIVF [NPSR1_Y147_YF]
1.3

Another sequence to look at: FLGRDYLETLM [DUS3L_Y610_YF]
0.957

Another sequence to look at: ATHSGYRLNDY [CLDN14_Y233]
0.739

Another sequence to look at: KVDKEYEVGVR [GHR_Y226_R229G]
0.796

Another sequence to look at: IALNSCHSRNC [IFNGR1_Y397_Y397C]
0.506

Another sequence to look at: LGKGSYAKVRS [TSSK2_Y23_K27R]
0.733

Another sequence to look at: TGDRPYVCPFD [YY1_Y383]
0.932

Another sequence to look at: RPQDGFRIVQH [PTPRT_Y1329_Y1329F]
0.838

Another sequence to look at: ADAGMYGVLPW [PLP1_Y207_R205G]
0.845

Another sequence to look at: SDPIVYTLENI [EMR1_Y534_I533V]
1.69

Another sequence to look at: NTYEKYWPFYQ [GATM_Y103]
2.3

Another sequence to look at: EKSREYDRLYE [PIK3R1_Y463]
1.09

====

Tested on: c-Abl (mouse)
Experiment: phosphorylation enrichment, bacterial display (enrichment ratio); higher = better substrate or ligand; peptides without Tyr show the background
Would you kindly list phosphorylation enrichment for each of these sequences?
Lab note: record the figure alone, no unit after it.

// returns reported phosphorylation enrichment for input DTLASYLDKVR [KRT12_Y139_R135T]
0.495

Another sequence to look at: ELPEKYSQNIF [PKP2_Y626_YF]
0.605

Another sequence to look at: QNTGVYYDLYG [PTPN11_Y62_D61V]
1.23

Another sequence to look at: NFDLDYDSVQP [MYC_Y16_YF]
0.68

Another sequence to look at: ALHHPYGCDVE [ABL2_Y80_R78H]
0.681

Another sequence to look at: IHYPPYTDWNQ [ALDH3B2_Y365]
0.938

Another sequence to look at: TEQDPYNNIVR [MMUT_Y364]
0.582

Another sequence to look at: NACGLYHTMNG [GATA5_Y216_K218T]
0.746

Another sequence to look at: FFLGAYDRFLP [SLC22A5_Y486_V481F_YF]
0.842

Another sequence to look at: RVVVPYEPPEV [TP53_Y220_S215R]
0.613

Another sequence to look at: TRDVNYGWTIR [MT-CYB_Y75_I78T]
0.534

Another sequence to look at: IVLRSYPASGH [NID2_Y449]
0.511

Another sequence to look at: ILTLKYPIELG [ACTA1_Y71_H75L]
0.476

Another sequence to look at: KACNPYKPPGP
0.524

====

Target: FGFR3 (UniProt P22607)
Sequence (P22607 whole entry, looked up): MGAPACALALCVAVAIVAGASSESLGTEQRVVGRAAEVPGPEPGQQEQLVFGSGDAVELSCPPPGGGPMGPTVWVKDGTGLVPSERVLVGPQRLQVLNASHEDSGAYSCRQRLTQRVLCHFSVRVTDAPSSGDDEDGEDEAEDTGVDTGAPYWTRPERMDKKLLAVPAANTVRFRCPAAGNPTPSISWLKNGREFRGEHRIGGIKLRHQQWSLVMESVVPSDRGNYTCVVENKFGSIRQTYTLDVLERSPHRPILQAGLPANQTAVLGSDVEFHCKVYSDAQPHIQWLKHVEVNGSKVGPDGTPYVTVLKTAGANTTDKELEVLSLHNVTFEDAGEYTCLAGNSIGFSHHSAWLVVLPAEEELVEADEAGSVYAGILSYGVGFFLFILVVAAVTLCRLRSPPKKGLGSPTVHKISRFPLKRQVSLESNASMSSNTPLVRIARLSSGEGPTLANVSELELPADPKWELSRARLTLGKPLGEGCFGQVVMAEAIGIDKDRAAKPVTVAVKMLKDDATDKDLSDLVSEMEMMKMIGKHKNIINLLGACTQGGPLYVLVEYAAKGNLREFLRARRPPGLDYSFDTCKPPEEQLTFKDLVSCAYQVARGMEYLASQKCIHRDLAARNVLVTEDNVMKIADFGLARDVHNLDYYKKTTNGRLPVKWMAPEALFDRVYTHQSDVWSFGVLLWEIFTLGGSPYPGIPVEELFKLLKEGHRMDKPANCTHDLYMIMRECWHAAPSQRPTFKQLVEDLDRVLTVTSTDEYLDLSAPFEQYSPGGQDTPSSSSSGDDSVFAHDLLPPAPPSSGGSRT
Test: phosphorylation enrichment, bacterial display (enrichment ratio); higher = better substrate or ligand; peptides without Tyr show the background
metric-name: phosphorylation enrichment
Lab note: record the figure alone, no unit after it.

// returns reported phosphorylation enrichment for input QLHRKYCLSPR [HJURP_Y445_E444K]
0.581

Another sequence to look at: TLSGIYQFIIA [FOXL2_Y81_YF]
7.18

Another sequence to look at: WPQKLYNNFVN [MYO5C_Y526_L522P]
0.518

Another sequence to look at: QDDFSYPSRQM [LDLR_Y847_G844D_YF]
0.704

Another sequence to look at: NSGFFYKTAEE [CCT6B_Y250]
0.74

Another sequence to look at: NNHGNYIVRLG [ETFDH_Y172]
0.595

Another sequence to look at: SSFDIYHLSRE [KIR3DL2_Y253_YF]
1.29

Another sequence to look at: FADIAYNYRHR [PAH_Y166_G171R]
0.435

Another sequence to look at: QKKPRYEIRWK [PDGFRB_Y562]
2.06

Another sequence to look at: TLNVRHESVQA [CEACAM7_Y236_Y236H]
0.39

Another sequence to look at: AGAKTYKMSMA [CPS1_Y309]
0.426

Another sequence to look at: EYKDAYTFAAD [BRDT_Y335_K336T]
0.74

Another sequence to look at: WIPIQYLIISE [NOG_Y222_P223L]
0.838

Another sequence to look at: PEADKYCLTFA [FGG_Y300_R301C_YF]
1.21

====

Tested on: AncSZ
Assay: phosphorylation enrichment, bacterial display (enrichment ratio); higher = better substrate or ligand; peptides without Tyr show the background
Would you kindly list phosphorylation enrichment for each of these sequences?
Lab note: record the figure alone, no unit after it.

# get_value(readout= phosphorylation enrichment, system= AncSZ) for RFLRGYQQDAF [HLA-A_Y137_R138Q_YF]
1.11

Another sequence to look at: KACNPYKPPGP
0.629

Another sequence to look at: DDFNLYINVKL [MTHFD1_Y52_S49F]
1.47

Another sequence to look at: SSYSRYIMMPN [LEF1_Y114_G113R]
0.654

Another sequence to look at: LAVNPYGPPDL
1.36

Another sequence to look at: KDHPDYEFQPR [SOX9_Y172_K173E_YF]
1.81

Another sequence to look at: YVGGFYGGCNE [CTSC_Y352]
1.17

Another sequence to look at: IRQDHYESLKE [MTR_Y921]
0.755

Another sequence to look at: ASMAKYYASGI [ACADSB_Y372_E376G]
0.71

Another sequence to look at: GDFFRYLAEVA [YWHAG_Y133_YF]
1.07

Another sequence to look at: LFLALYTGLVR [PIGB_Y402_H407R]
1.31

Another sequence to look at: YSTDCYRVGGH [NTRK2_Y707_Y706C]
0.733

Another sequence to look at: DVFRQYASLTG [GANAB_Y379]
0.568

Another sequence to look at: QHVPDYRQNGY [PCDHGA1_Y890_V894G]
0.788

Another sequence to look at: RPQDGFRIVQH [PTPRT_Y1329_Y1329F]
0.769

Another sequence to look at: ITRDIYETDFF [INSR_Y1185_M1180I_YF]
1.44

Another sequence to look at: RFVTRSIFNRE [HLA-DQB1_Y62_Y62S_YF]
1.14

Another sequence to look at: LLKAKYELLNA [POLR3A_Y714]
0.582

Another sequence to look at: QNTGVYYDLYG [PTPN11_Y62_D61V]
2

Another sequence to look at: STTIHYNYMCN [TP53_Y234_C229S]
1

Another sequence to look at: KHMADYPDYKY [SOX11_Y113]
0.642

Another sequence to look at: EESSHYSTEKE [ADAR_Y587]
1.14

Another sequence to look at: ILDEAYVMAGA [ERBB2_Y772_V777A]
1.48

Another sequence to look at: RFLERDIYNRE [HLA-DPB1_Y57_Y57D]
2.71

Another sequence to look at: KPNMNYDKLSW [FLI1_Y332_R337W]
0.751

Another sequence to look at: RMDGKYACSFT [FLNB_Y704_T703K_YF]
1.38

Another sequence to look at: FRDMDYRSFPR [RBM10_Y41_YF]
0.694

Another sequence to look at: GVVVPYEPPEV [TP53_Y220_S215G]
0.892

Another sequence to look at: KILAKYLLETS [NAMPT_Y175]
0.66

Another sequence to look at: AVISVYDLVAF [PSEN1_Y256_V261F]
1.37

Another sequence to look at: NFHRGYHLQVL [CD200R1L_Y138]
0.755

Another sequence to look at: ASLEAYCKHKF [RXRA_Y403_YF]
0.83

Another sequence to look at: PAKPRYRARQR [KCNJ11_Y26_E23K]
1.08

Another sequence to look at: AGAKTYKMSMA [CPS1_Y309]
0.389

Another sequence to look at: SYVVRYNQPRV [GRIN2D_Y736_M733V]
0.843

Another sequence to look at: MSRDVYSIDYY [NTRK2_Y702_T704I]
1.54

Another sequence to look at: GEIQEYGAPLD [ABCC1_Y1508_S1512L]
1.15

Another sequence to look at: VDDEIYYFRKP [PBRM1_Y1289]
2.94

Another sequence to look at: EQLQSYQAEII [KRT33A_Y268]
1.12

Another sequence to look at: FLNSIYKSRDE [ROS1_Y2227]
0.566

Another sequence to look at: KLFFHYNPKLC [INSR_Y457]
1.25

Another sequence to look at: ATHSGYRLNDY [CLDN14_Y233]
0.568

Another sequence to look at: CTTIHYNYMCD [TP53_Y234_N239D]
0.796

Another sequence to look at: KKMKRYHVGKV [HARS2_Y151]
0.466

Another sequence to look at: SVQVEYMKTIL [GLYATL2_Y127_D126E]
0.643

Another sequence to look at: SVTCTYSPDLN [TP53_Y126_A129D]
1.5

Another sequence to look at: LQLLGHRPVYS [CHST6_Y358_Y358H]
0.615

Another sequence to look at: LLVVVYKYRCY [PSEN1_Y154_L153V]
2

Another sequence to look at: KSPDSYQKILL [ATM_Y1415]
0.55

Another sequence to look at: EIIPFYGMSTF [FNDC3B_Y175_YF]
0.955

Another sequence to look at: RLLVVYHWTQR [HBD_Y36_P37H]
1.42

Another sequence to look at: ALTDNYMFVVI [HAGH_Y61_L64V_YF]
1.68

Another sequence to look at: DLGIQYKVLKP [CTNNA1_Y177_A179V]
1.1

Another sequence to look at: FFLGAYDRFLP [SLC22A5_Y486_V481F_YF]
1.5

Another sequence to look at: IVLRSYPASGH [NID2_Y449]
0.726

Another sequence to look at: PRLLRYLQLDF [ASB10_Y457]
1.39

Another sequence to look at: TSSGGYRRTPS [ABI1_Y333]
0.499

Another sequence to look at: NTGDYYDLYGG [PTPN11_Y63]
4.64
